Below, each of the compounds is paired with its reported normalized growth value.
Test: chemical genetic growth profiling, strain panel (AID 1159580);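 note: tested at 20 µM; growth read once vehicle control cultures reached saturation at 30 °C; 1 = growth at the plate median or of vehicle wells; lower values mean less growth of the strain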
Conditions: S. cerevisiae deletion strains, growth OD, locus YNL298W, strain CLA4, stronger effect = lower value
The campaign covered roughly 5,500 compounds. About 2,000 (36%) were called active. Another 18% or so got no clear call; they are omitted. This is one part of the list.
Response field accepts a number only; no unit should be typed.

Known results for compounds:
{"compound": "CCOC(=O)C(=O)C1(C(=O)OCC)Oc2cc(OC)cc(OC)c2C(=O)C1c1ccccc1 (stereo not given)", "normalized growth": 0.965}
{"compound": "NCC1CCC(C(=O)O)CC1 (stereo not given)", "normalized growth": 0.987}
{"compound": "CNC(C)[C@H](O)c1ccccc1 (stereo not given in full)", "normalized growth": 1.02}
{"compound": "COc1ccc2c(C)cc(=O)oc2c1", "normalized growth": 1.01}
{"compound": "COc1cc2c(cc1OC)C1C(=O)c3ccc4c(c3OC1CO2)CCC(C)(C)O4 (stereo not given)", "normalized growth": 1.01}
{"compound": "O=C(O)c1cc2ccccc2[nH]1", "normalized growth": 1}
{"compound": "CC(C)(OC(=O)c1ccccc1)[C@@H]1Cc2cc3ccc(=O)oc3cc2O1", "normalized growth": 0.942}
{"compound": "COc1cc2c(cc1OC)[C@@H]1C(=O)c3ccc4c(c3O[C@@H]1CO2)C=CC(C)(C)O4", "normalized growth": 0.984}

Proceeding to the next compound to report its normalized growth.
// lookup normalized growth for COC1=CC(=O)C[C@@H](C)[C@]12Oc1c(Cl)c(OC)cc(OC)c1C2=O
0.995

----------
Test: chemical genetic growth profiling, strain panel (AID 1159580);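 note: tested at 20 µM; growth read once vehicle control cultures reached saturation at 30 °C; 1 = growth at the plate median or of vehicle wells; lower values mean less growth of the strain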
Conditions: S. cerevisiae deletion strains, growth OD, locus YKL085W, strain MDH1
Hit rate of the full screen: of about 5,500 compounds, about 2,000 (36%) were called active. Not shown: some 18% with an inconclusive outcome. Cut-off read from the data, not from the text of the source: active = normalized growth mostly below about 0.91 (no sharp cut-off); inconclusive = no clear call, values can overlap the other calls; inactive = mostly above about 0.92. The list shows a part of the results.
Bench note: report the call from active, inactive

Use these answered entries as a reference point.
{"molecule": "COc1cc(O)c(C(=O)/C=C/c2ccccc2)c(OC)c1", "category label": "inactive"}
{"molecule": "c1ccc(N=Nc2ccccc2)cc1", "category label": "inactive"}
{"molecule": "CC(C(=O)O)c1cccc(Oc2ccccc2)c1 (stereo not given)", "category label": "active"}
{"molecule": "CC(C(=O)O)c1ccc(-c2ccccc2)c(F)c1 (stereo not given)", "category label": "active"}
{"molecule": "CN1CCC(=C2c3ccccc3Sc3ccccc32)CC1", "category label": "inactive"}

Which result was noted for this molecule in the test: C=C1C([C@]2(C)C(CC(=O)OC)[C@@](C)(COC(C)=O)OC(=O)C[C@@H]2OC(C)=O)[C@@H](OC=O)[C@H](OC(=O)C(O)C(C)CC)[C@@]2(C)[C@H](c3ccoc3)CC(=O)C12O (stereo not given in full)
inactive

Repeat with CCN(CC)CCNC(=O)c1cc(Br)c(N)cc1OC
inactive

Repeat with CC(=O)NC1SCCC1=O (stereo not given)
inactive

----------
Assay: chemical genetic growth profiling, strain panel (AID 1159580);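 note: tested at 20 µM; growth read once vehicle control cultures reached saturation at 30 °C; 1 = growth at the plate median or of vehicle wells; lower values mean less growth of the strain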
Settings: S. cerevisiae deletion strains, growth OD, locus YNL307C, strain MCK1 (second series)
The campaign covered roughly 5,500 compounds. About 2,000 (36%) were called active. About 18% were inconclusive and are not listed. Rule as the data show it: active = normalized growth mostly below about 0.91 (no sharp cut-off); inconclusive = no clear call, values can overlap the other calls; inactive = mostly above about 0.92. This is one part of the list.
Bench note: report the call from active, inactive

Use these answered entries as a reference point.
{"smiles repr": "Cc1cc(C(=O)NNc2ccc(F)cc2F)no1", "category label": "inactive"}
{"smiles repr": "COc1ccc(NNC(=O)c2sc3ccccc3c2Cl)cc1", "category label": "active"}
{"smiles repr": "O=C(NNc1ccccc1F)c1ccno1", "category label": "inactive"}
{"smiles repr": "Cc1cc(Cl)ccc1NNC(=O)c1snnc1C", "category label": "inactive"}
{"smiles repr": "COc1ccc(CN2CSC(=S)N(Cc3ccc(OC)cc3)C2)cc1", "category label": "inactive"}

Which result was noted for this molecule in the test: CC(=O)CSc1nnc(-c2ccc(C(C)(C)C)cc2)n1-c1ccc(Cl)cc1
inactive
